The measured values listed here are drawn from patent US12692269B2.

system: TEAD4 YAP50-100 (Homo sapiens)
testDescription: TEAD4-YAP HTRF (TR-FRET) protein-protein interaction assay
Assay type: binding
conditionSet: TEAD4, YAP peptide 50-100, HTRF
reportedEndpoint: TEAD4 YAP50-100 HTRF combined: Max % Inhibition (%)
Respond numerically; units are % and should not be typed.

Reference set, count: 6
* CC(C)c1ccc(COc2cc(=O)n3nc(-c4cnccn4)c(C(=O)N4CC(CF)C4)c3[nH]2)cc1 [Compound 52] | 66.0
* O=C(c1c(C2CNCCO2)nn2c(=O)cc(-c3ccc(C4CCCCC4)cc3)[nH]c12)N1CC(CF)C1 (single isomer, unassigned) [Enantiomer A, Example 63] | 40.0
* Cc1nccnc1-c1nn2c(=O)cc(-c3ccc(C4CCCCC4)c(F)c3)[nH]c2c1C(=O)N1CC(CF)C1 [Compound 21] | 49.5
* O=C(c1c(-c2ncccn2)nn2c(=O)cc(-c3ccc(C4(C5CCCC5)CC4)cc3)[nH]c12)N1CC(CF)C1 [Compound 57] | 35.0
* CC(C)c1ccnc(-c2nn3c(=O)cc(-c4ccc(C5CCCCC5)cc4)[nH]c3c2C(=O)N2CC(CF)C2)n1 [Compound 10] | 60.5
* O=C(c1c(-c2ccccn2)nn2c(=O)cc(-c3ccc(C4CCCCC4)cc3)[nH]c12)N1CC(CF)C1 [Compound 16] | 40.5

Next up:
I would be grateful if you could share the reported TEAD4 YAP50-100 HTRF combined: Max % Inhibition for O=C(c1c(-c2ncccn2)nn2c(=O)cc(-c3ccc(CC4CCCC4)cc3)[nH]c12)N1CC(CF)C1 [Compound 24] .
51.0

----------
The compounds listed here are annotated with their pEC50.
system: TEAD4 TAZ (amino acids 13-57) (Homo sapiens)
testDescription: TEAD4-TAZ HTRF (TR-FRET) protein-protein interaction assay
conditionSet: TEAD4-TAZ HTRF, TR-FRET 665 nm/615 nm; read-out: TEAD4 TAZ HTRF combined: EC50
pEC50 (log units): -log10 of the concentration in mol/L.

Reference set, count: 5
• Cc1nccnc1-c1nn2c(=O)cc(-c3ccc(C4CCCCC4)cc3)[nH]c2c1C(=O)N(C)C = 6.03
• C[C@H]1[C@@H](CF)CN1C(=O)c1c(-c2cnccn2)nn2c(=O)cc(-c3ccc(CC4CCCC4)cc3)[nH]c12 (single isomer, unassigned) [Isomer B, Example 44] = 7.70
• CC(CO)c1nn2c(=O)cc(-c3ccc(C4CCCCC4)cc3)[nH]c2c1C(=O)N1CC[C@@H](C#N)C1 (single isomer, unassigned) [Final product obtained using Enantiomer A from Step 4, Example 54] = 6.32
• Cn1cnc(-c2nn3c(=O)cc(-c4ccc(C5CCCCC5)cc4)[nH]c3c2C(=O)N2CC(CF)C2)c1 = 6.54
• N#Cc1nccnc1-c1nn2c(=O)cc(-c3ccc(C4CCCCC4)cc3)[nH]c2c1C(=O)N1CC(CF)C1 = 6.43

Next up:
I would be grateful if you could share the reported pEC50 for `CC(C)(C)c1ccc(COc2cc(=O)n3nc(-c4ncccn4)c(C(=O)N4CC(CF)C4)c3[nH]2)cc1` .
7.40

----------
system: TEAD4 YAP50-100 (Homo sapiens, UniProt Q15561)
Sequence (Q15561 217-434 limits assumed): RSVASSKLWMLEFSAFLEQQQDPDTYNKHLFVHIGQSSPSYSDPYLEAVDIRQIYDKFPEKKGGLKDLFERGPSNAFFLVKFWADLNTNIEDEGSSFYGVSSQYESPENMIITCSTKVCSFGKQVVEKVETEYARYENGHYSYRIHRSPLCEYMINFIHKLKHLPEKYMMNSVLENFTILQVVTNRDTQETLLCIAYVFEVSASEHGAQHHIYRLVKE
testDescription: TEAD4-YAP HTRF (TR-FRET) protein-protein interaction assay
conditionSet: TEAD4, YAP peptide 50-100, HTRF; read-out: TEAD4 YAP50-100 HTRF combined: EC50
pEC50: −log10 of the molar value.
The threshold is inclusive: pEC50 of exactly 6 counts as MET; values below receive NOT MET.

pEC50 >= 6 for `O=C(c1c(-c2nccnc2C(F)(F)F)nn2c(=O)cc(-c3ccc(C4CCCCC4)cc3)[nH]c12)N1CC(CF)C1` ?
MET

pEC50 >= 6 for `C[C@@H]1[C@H](CF)CN1C(=O)c1c(C(=O)N(C)C)nn2c(=O)cc(-c3ccc(C4CCCCC4)cc3)[nH]c12` ?
NOT MET

pEC50 >= 6 for `Cc1nccnc1-c1nn2c(=O)cc(-c3ccc(C4CCCC4)cc3)[nH]c2c1C(=O)N1C[C@H](CF)[C@@H]1C` ?
MET

----------
system: TEAD1 YAP50-100 (Homo sapiens, UniProt P28347)
Sequence (P28347 167-426 limits assumed): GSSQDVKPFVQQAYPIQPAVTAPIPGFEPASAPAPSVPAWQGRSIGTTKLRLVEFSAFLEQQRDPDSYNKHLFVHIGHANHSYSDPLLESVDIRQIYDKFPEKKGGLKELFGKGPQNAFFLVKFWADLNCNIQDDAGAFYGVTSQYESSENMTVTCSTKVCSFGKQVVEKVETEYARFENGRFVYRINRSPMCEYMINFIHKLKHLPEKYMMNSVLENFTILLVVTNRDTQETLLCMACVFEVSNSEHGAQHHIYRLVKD
testDescription: TEAD1-YAP HTRF (TR-FRET) protein-protein interaction assay
conditionSet: TEAD1, YAP peptide 50-100, HTRF; read-out: TEAD1 YAP50-100 HTRF combined: EC50
The compounds listed here are annotated with their EC50.
Respond numerically; units are nM and should not be typed.

- Cc1nccnc1-c1nn2c(=O)cc(-c3ccc(C4CCCCC4)cc3)[nH]c2c1C(=O)N1CC(CF)C1 [Compound 27]: 30
- O=C(c1c(-c2ncccn2)nn2c(=O)cc(-c3ccc(CC4CCCC4)cc3)[nH]c12)N1CC(CF)C1 [Compound 24]: 20
- Cc1nccnc1-c1nn2c(=O)cc(-c3ccc(CC4CCCC4)cc3)[nH]c2c1C(=O)N1C[C@H](CF)[C@@H]1C (single isomer, unassigned) [Isomer B, Example 42]: 40
- O=C(c1c(-c2cnccn2)nn2c(=O)cc(-c3ccc(C4CCCCC4)cc3)[nH]c12)N1CC(CF)C1 [Compound 17]: 30
- CCn1cnc(-c2nn3c(=O)cc(-c4ccc(C5CCCCC5)cc4)[nH]c3c2C(=O)N2CC(CF)C2)c1 [Compound 31]: 80

I would be grateful if you could share the reported EC50 for Cc1ccnc(-c2nn3c(=O)cc(-c4ccc(C5CCCCC5)cc4)[nH]c3c2C(=O)N2CC(CF)C2)n1 [Compound 9] .
30

I would be grateful if you could share the reported EC50 for Cc1cncc(-c2nn3c(=O)cc(-c4ccc(C5CCCCC5)cc4)[nH]c3c2C(=O)N2CC(CF)C2)n1 [Compound 28] .
40

I would be grateful if you could share the reported EC50 for O=C(c1c(-c2cnccn2)nn2c(=O)cc(-c3ccc(C4CCCCC4)c(F)c3)[nH]c12)N1CC(CF)C1 [Compound 23] .
40

I would be grateful if you could share the reported EC50 for C[C@@H]1[C@H](CF)CN1C(=O)c1c(-c2ncccn2)nn2c(=O)cc(-c3ccc(C4CCCCC4)cc3)[nH]c12 (single isomer, unassigned) [Isomer A, Example 40] .
60

I would be grateful if you could share the reported EC50 for CCN(C)C(=O)c1nn2c(=O)cc(-c3ccc(C4CCCCC4)cc3)[nH]c2c1C(=O)N1CC(CF)C1 [Compound 35] .
70

I would be grateful if you could share the reported EC50 for Cc1nccnc1-c1nn2c(=O)cc(-c3ccc(C4CCCCC4)cc3)[nH]c2c1C(=O)N1C[C@@H](CF)[C@H]1C (single isomer, unassigned) [Isomer A, Example 41] .
150

I would be grateful if you could share the reported EC50 for C[C@H](CO)c1nn2c(=O)cc(-c3ccc(C4CCCCC4)cc3)[nH]c2c1C(=O)N1CC(CF)C1 (single isomer, unassigned) [Enantiomer A, Example 55] .
80

I would be grateful if you could share the reported EC50 for O=C(c1c(C2CNCCO2)nn2c(=O)cc(-c3ccc(C4CCCCC4)cc3)[nH]c12)N1CC(CF)C1 (single isomer, unassigned) [Enantiomer A, Example 63] .
140

----------
system: TEAD2 TAZ (amino acids 13-57) (Homo sapiens)
Sequence (Q15562 217-447): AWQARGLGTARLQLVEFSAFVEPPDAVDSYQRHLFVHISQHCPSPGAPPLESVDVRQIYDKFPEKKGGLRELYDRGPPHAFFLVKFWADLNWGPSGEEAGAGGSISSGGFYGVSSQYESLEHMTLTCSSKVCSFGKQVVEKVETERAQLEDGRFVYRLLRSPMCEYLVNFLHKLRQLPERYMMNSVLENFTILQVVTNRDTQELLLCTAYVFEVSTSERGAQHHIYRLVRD
testDescription: TEAD2-TAZ HTRF (TR-FRET) protein-protein interaction assay
Type: binding
conditionSet: TEAD2, TAZ peptide, HTRF
reportedEndpoint: TEAD2 TAZ HTRF combined: Max % Inhibition (%)
Respond numerically; units are % and should not be typed.

• O=C(c1c(-c2cnco2)nn2c(=O)cc(-c3ccc(C4CCCCC4)cc3)[nH]c12)N1CC(CF)C1 = 56.5
• O=C(c1c(C2CNCCO2)nn2c(=O)cc(-c3ccc(C4CCCCC4)cc3)[nH]c12)N1CC(CF)C1 (single isomer, unassigned) [Enantiomer A, Example 63] = 66.0
• Cc1nccnc1-c1nn2c(=O)cc(-c3ccc(CC4CCCC4)cc3)[nH]c2c1C(=O)N1C[C@H](CF)[C@@H]1C (single isomer, unassigned) [Isomer B, Example 42] = 62.0

I would be grateful if you could share the reported TEAD2 TAZ HTRF combined: Max % Inhibition for `O=C(c1c(-c2ccccc2)nn2c(=O)cc(-c3ccc(C4CCCCC4)cc3)[nH]c12)N1CC(CF)C1` .
64.0

I would be grateful if you could share the reported TEAD2 TAZ HTRF combined: Max % Inhibition for Cc1nccnc1-c1nn2c(=O)cc(-c3ccc(OC(c4ccccc4)C(F)(F)F)cc3)[nH]c2c1C(=O)N1C[C@H](CF)[C@@H]1C (single isomer, unassigned) [Final product obtained using Enantiomer B from Step 1, Example 56] .
77.0

I would be grateful if you could share the reported TEAD2 TAZ HTRF combined: Max % Inhibition for CC1CCN1C(=O)c1nn2c(=O)cc(-c3ccc(C4CCCCC4)cc3)[nH]c2c1C(=O)N1CC(CF)C1 (single isomer, unassigned) [Enantiomer A, Example 33] .
63.0
